method: Oral bioavailability in Sprague-Dawley rat at 10 mg/kg
Type: ADME, organism-based
details: in vivo
measured-parameter: bioavailability (%)
Numbers only, in %.

Solved entries (count: 3):
CN[C@@H](Cn1c(=O)c(-c2cccc(OCCCCC(=O)O)c2F)c(C)n(Cc2c(F)cccc2C(F)(F)F)c1=O)c1ccccc1: 13
Cc1c(-c2cccc(OCCCCC(=O)O)c2)c(=O)n(C[C@H](N)c2ccccc2)c(=O)n1Cc1c(F)cccc1C(F)(F)F: 1.1
Cc1c(-c2cccc(OCCCCCC(=O)O)c2F)c(=O)n(C[C@H](N)c2ccccc2)c(=O)n1Cc1c(F)cccc1C(F)(F)F: 3.7

Working through the 2 molecules below one at a time, give bioavailability for each.
1. Cc1c(-c2cccc(OCCCCC(=O)O)c2F)c(=O)n(C[C@H](N)c2ccccc2)c(=O)n1Cc1c(F)cccc1C(F)(F)F
2. Cc1c(-c2cccc(OCCCCCC(=O)O)c2)c(=O)n(C[C@H](N)c2ccccc2)c(=O)n1Cc1c(F)cccc1C(F)(F)F

Response:
6.6
4.8

* * *

method: Permeability from apical to basolateral side of human Caco-2 cell membrane
Assay type: ADME, cell-based
measured-parameter: Papp A→B (×10⁻⁶ cm/s)
One number for each entry, in ×10⁻⁶ cm/s.

Solved entries (count: 3):
Cc1c(-c2cccc(OCCCCC(=O)O)c2F)c(=O)n(C[C@@H](c2ccccc2)N(C)C)c(=O)n1Cc1c(F)cccc1C(F)(F)F: 17
Cc1c(-c2cccc(OCCCCC(=O)O)c2F)c(=O)n(C[C@H](N)c2ccccc2)c(=O)n1Cc1c(F)cccc1C(F)(F)F: 0.1
CN[C@@H](Cn1c(=O)c(-c2cccc(OCCCCC(=O)O)c2F)c(C)n(Cc2c(F)cccc2C(F)(F)F)c1=O)c1ccccc1: 1.2

The record that follows has no Papp A→B shown yet.
Request: // lookup Papp A→B for "Cc1c(-c2cccc(OCCCCC(=O)O)c2)c(=O)n(C[C@H](N)c2ccccc2)c(=O)n1Cc1c(F)cccc1C(F)(F)F"
Response: 0.1

* * *

system-name: Gonadotropin-releasing hormone receptor (Homo sapiens, UniProt P30968)
method: Antagonist activity at human GnRH receptor expressed in RBL cells assessed as inhibition of GnRH-stimulated [3H]inositol phosphate hydrolysis by whole cell assay
Can you tell me IC50 for the items I'm about to list?
One number for each entry, in nM.

Cc1c(-c2cccc(OCCCCCC(=O)O)c2F)c(=O)n(C[C@H](N)c2ccccc2)c(=O)n1Cc1c(F)cccc1C(F)(F)F: 0.6

Working through the 4 molecules below one at a time, give IC50 for each.
1. Cc1c(-c2cccc(OCCCC(=O)O)c2)c(=O)n(C[C@H](N)c2ccccc2)c(=O)n1Cc1c(F)cccc1C(F)(F)F
2. Cc1c(-c2cccc(OCCCCC(=O)O)c2)c(=O)n(C[C@H](N)c2ccccc2)c(=O)n1Cc1c(F)cccc1C(F)(F)F
3. Cc1c(-c2cccc(OCCCCC(=O)O)c2F)c(=O)n(C[C@H](N)c2ccccc2)c(=O)n1Cc1c(F)cccc1C(F)(F)F
4. Cc1c(-c2cccc(OCCCCCC(=O)O)c2)c(=O)n(C[C@H](N)c2ccccc2)c(=O)n1Cc1c(F)cccc1C(F)(F)F

Response:
1: 23; 2: 26; 3: 2.6; 4: 2.8

* * *

Can you tell me clearance for the items I'm about to list?
method: Clearance in Sprague-Dawley rat at 2.5 mg/kg, iv
Type: ADME, organism-based
Set-up: dose 2.5 mg/kg, route intravenous
details: in vivo
Phrase the answer as number then unit, nothing more needed.

Solved entries (count: 4):
Cc1c(-c2cccc(OCCCCC(=O)O)c2)c(=O)n(C[C@H](N)c2ccccc2)c(=O)n1Cc1c(F)cccc1C(F)(F)F: 7.5 mL/min/kg
CN[C@@H](Cn1c(=O)c(-c2cccc(OCCCCC(=O)O)c2F)c(C)n(Cc2c(F)cccc2C(F)(F)F)c1=O)c1ccccc1: 50 mL/min/kg
Cc1c(-c2cccc(OCCCCCC(=O)O)c2)c(=O)n(C[C@H](N)c2ccccc2)c(=O)n1Cc1c(F)cccc1C(F)(F)F: 36 mL/min/kg
Cc1c(-c2cccc(OCCCCC(=O)O)c2F)c(=O)n(C[C@H](N)c2ccccc2)c(=O)n1Cc1c(F)cccc1C(F)(F)F: 14 mL/min/kg

The record that follows has no clearance shown yet.
Request: // lookup clearance for "Cc1c(-c2cccc(OCCCCCC(=O)O)c2F)c(=O)n(C[C@H](N)c2ccccc2)c(=O)n1Cc1c(F)cccc1C(F)(F)F"
Response: 21 mL/min/kg

* * *

system-name: Gonadotropin-releasing hormone receptor (Homo sapiens, UniProt P30968)
method: Displacement of [125I]tyr5,D-Leu6,NMeLeu7-GnRH from human cloned GnRH receptor expressed in RBL cells
Assay type: cell-based
Can you tell me pKi for the items I'm about to list?
Answers are plain numbers, as −log10 of the molar value.

CN[C@@H](Cn1c(=O)c(-c2cccc(OCCC(C)(C)CC(=O)O)c2F)c(C)n(Cc2c(F)cccc2C(F)(F)F)c1=O)c1ccccc1: 7.54

Working through the 6 molecules below one at a time, give pKi for each.
1. CN[C@@H](Cn1c(=O)c(-c2cccc(OCCCN(C)CC(=O)O)c2F)c(C)n(Cc2c(F)cccc2C(F)(F)F)c1=O)c1ccccc1
2. Cc1c(-c2cccc(OCCCC(=O)O)c2)c(=O)n(C[C@H](N)c2ccccc2)c(=O)n1Cc1c(F)cccc1C(F)(F)F
3. Cc1c(-c2cccc(OCCC(=O)O)c2F)c(=O)n(C[C@H](N)c2ccccc2)c(=O)n1Cc1c(F)cccc1C(F)(F)F
4. Cc1c(-c2cccc(OCCCCC(=O)O)c2F)c(=O)n(C[C@H](N)c2ccccc2)c(=O)n1Cc1c(F)cccc1C(F)(F)F
5. Cc1c(-c2cccc(OCCCCCC(=O)O)c2)c(=O)n(C[C@H](N)c2ccccc2)c(=O)n1Cc1c(F)cccc1C(F)(F)F
6. Cc1c(-c2cccc(OCC(=O)O)c2F)c(=O)n(C[C@H](N)c2ccccc2)c(=O)n1Cc1c(F)cccc1C(F)(F)F

Response:
[7.46, 8.12, 8.00, 9.00, 8.96, 7.28]

* * *

Can you tell me Ki for the items I'm about to list?
system-name: Gonadotropin-releasing hormone receptor (Homo sapiens, UniProt P30968)
method: Displacement of [125I]tyr5,D-Leu6,NMeLeu7-GnRH from human cloned GnRH receptor expressed in RBL cells
Type: cell-based
Answers are plain numbers, in nM.

Solved entries (count: 6):
CN[C@@H](Cn1c(=O)c(-c2cccc(OCCOCC(=O)O)c2F)c(C)n(Cc2c(F)cccc2C(F)(F)F)c1=O)c1ccccc1: 9.3
Cc1c(-c2cccc(OCCCCCC(=O)O)c2F)c(=O)n(C[C@H](N)c2ccccc2)c(=O)n1Cc1c(F)cccc1C(F)(F)F: 1.2
CN[C@@H](Cn1c(=O)c(-c2cccc(OCCN(C)CC(=O)O)c2F)c(C)n(Cc2c(F)cccc2C(F)(F)F)c1=O)c1ccccc1: 98
CN[C@@H](Cn1c(=O)c(-c2cccc(OCCNCC(=O)O)c2F)c(C)n(Cc2c(F)cccc2C(F)(F)F)c1=O)c1ccccc1: 27
CN[C@@H](Cn1c(=O)c(-c2cccc(OCCCOCC(=O)O)c2F)c(C)n(Cc2c(F)cccc2C(F)(F)F)c1=O)c1ccccc1: 38
CN[C@@H](Cn1c(=O)c(-c2cccc(OCCCNCC(=O)O)c2F)c(C)n(Cc2c(F)cccc2C(F)(F)F)c1=O)c1ccccc1: 155

Request: // lookup Ki for "Cc1c(-c2cccc(OCCCC(=O)O)c2F)c(=O)n(C[C@H](N)c2ccccc2)c(=O)n1Cc1c(F)cccc1C(F)(F)F"
Response: 4.7

* * *

Can you tell me log10 Ki for the items I'm about to list?
system-name: Gonadotropin-releasing hormone receptor (Homo sapiens)
Sequence (P30968 whole entry): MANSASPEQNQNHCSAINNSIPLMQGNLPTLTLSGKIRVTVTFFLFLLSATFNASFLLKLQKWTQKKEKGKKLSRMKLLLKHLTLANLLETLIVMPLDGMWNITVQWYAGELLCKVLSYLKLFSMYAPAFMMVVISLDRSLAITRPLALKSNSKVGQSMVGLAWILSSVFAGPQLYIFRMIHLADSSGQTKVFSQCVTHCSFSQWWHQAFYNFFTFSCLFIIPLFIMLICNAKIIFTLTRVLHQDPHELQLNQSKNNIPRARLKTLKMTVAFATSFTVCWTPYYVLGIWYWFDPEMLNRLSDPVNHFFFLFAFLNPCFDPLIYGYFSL
method: Displacement of [125I]Pro-N-Et-GnRH from human cloned GnRH receptor expressed in HEK cells
Assay type: cell-based, HEK293
Record value = log10 of Ki given in nM.

Cc1c(-c2cccc(OCCCCC(=O)O)c2F)c(=O)n(C[C@H](N)c2ccccc2)c(=O)n1Cc1c(F)cccc1C(F)(F)F: 0.08
Cc1c(-c2cccc(OCCCCC(=O)O)c2F)c(=O)n(C[C@@H](c2ccccc2)N(C)C)c(=O)n1Cc1c(F)cccc1C(F)(F)F: 1.18
Cc1c(-c2cccc(OCCCCCC(=O)O)c2F)c(=O)n(C[C@H](N)c2ccccc2)c(=O)n1Cc1c(F)cccc1C(F)(F)F: 0.11
Cc1c(-c2cccc(OCCCCC(=O)O)c2)c(=O)n(C[C@H](N)c2ccccc2)c(=O)n1Cc1c(F)cccc1C(F)(F)F: 0.61
CN[C@@H](Cn1c(=O)c(-c2cccc(OCCCCC(=O)O)c2F)c(C)n(Cc2c(F)cccc2C(F)(F)F)c1=O)c1ccccc1: 0.08
Cc1c(-c2cccc(OCCCCCC(=O)O)c2)c(=O)n(C[C@H](N)c2ccccc2)c(=O)n1Cc1c(F)cccc1C(F)(F)F: 0.32
N[C@@H](Cn1c(=O)c(-c2cccc(OCCCCC(=O)O)c2F)cn(Cc2c(F)cccc2C(F)(F)F)c1=O)c1ccccc1: 1.53

Request: // lookup log10 Ki for "N[C@@H](Cn1c(=O)c(-c2cccc(OCCCCCC(=O)O)c2F)cn(Cc2c(F)cccc2C(F)(F)F)c1=O)c1ccccc1"
Response: 1.52
